Reported IC50 ratio (A3R/A2aR) values for the following compounds.
target: adenosine A3 receptor (A3R) (Homo sapiens, UniProt P0DMS8); construct: expressed in transfected cells; host or cells: CHO-K1; assay: Inhibition of the adenosine A3 receptor cAMP signaling pathway in CHO-K1/A3R cells (HTRF); assay type: cell-based; settings: selectivity A3R over A2aR
Sequence (P0DMS8 whole entry): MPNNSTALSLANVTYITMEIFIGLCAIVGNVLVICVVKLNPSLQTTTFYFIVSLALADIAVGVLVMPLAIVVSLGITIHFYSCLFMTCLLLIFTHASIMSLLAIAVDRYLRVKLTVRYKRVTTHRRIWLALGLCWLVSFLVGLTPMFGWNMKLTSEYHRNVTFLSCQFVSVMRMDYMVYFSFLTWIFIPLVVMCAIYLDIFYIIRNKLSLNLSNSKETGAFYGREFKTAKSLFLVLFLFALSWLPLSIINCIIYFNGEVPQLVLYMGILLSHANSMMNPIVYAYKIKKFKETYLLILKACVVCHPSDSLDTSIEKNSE

Consider the worked cases shown below.
[
  {
    "compound": "Cc1cc(-c2nc(N)nnc2-c2ccc3nccc(C)c3c2)ccn1 [Example 48]",
    "testedTarget": "adenosine A3 receptor (A3R) (Homo sapiens, UniProt P0DMS8)",
    "IC50 ratio (A3R/A2aR)": ">10^3"
  },
  {
    "compound": "Cc1cc(-c2nnc(N)nc2-c2ccccc2)cc2cccnc12 [Example 1]",
    "testedTarget": "adenosine A3 receptor (A3R) (Homo sapiens, UniProt P0DMS8)",
    "IC50 ratio (A3R/A2aR)": ">10^4"
  },
  {
    "compound": "Cc1ccnc2ccc(-c3nnc(N)nc3-c3ccccc3F)cc12 [Example 17]",
    "testedTarget": "adenosine A3 receptor (A3R) (Homo sapiens, UniProt P0DMS8)",
    "IC50 ratio (A3R/A2aR)": ">10^4"
  },
  {
    "compound": "Nc1nnc(-c2cc(F)c3ncccc3c2)c(-c2ccccc2)n1 [Example 2]",
    "testedTarget": "adenosine A3 receptor (A3R) (Homo sapiens, UniProt P0DMS8)",
    "IC50 ratio (A3R/A2aR)": ">10^4"
  },
  {
    "compound": "Cc1ncnc2ccc(-c3nnc(N)nc3-c3ccc(F)cc3)cc12 [Example 19]",
    "testedTarget": "adenosine A3 receptor (A3R) (Homo sapiens, UniProt P0DMS8)",
    "IC50 ratio (A3R/A2aR)": ">10^4"
  }
]

Request: What does the record list as IC50 ratio (A3R/A2aR) for [2H]C([2H])([2H])c1ccnc2ccc(-c3nnc(N)nc3-c3ccc(F)cc3)cc12 [Example 22] ?
Result: >10^4

Request: # lookup: IC50 ratio (A3R/A2aR) of Cc1ccnc2c(F)cc(-c3nnc(N)nc3-c3ccccc3F)cc12 [Example 31]
Result: >10^3

Request: Given the compound Cc1ncnc2c(F)cc(-c3nnc(N)nc3-c3ccccc3)cc12 [Example 45] , what is its reported IC50 ratio (A3R/A2aR)?
Result: >10^3

Request: Endpoint output: IC50 ratio (A3R/A2aR) of [2H]C([2H])([2H])c1ncnc2ccc(-c3nnc(N)nc3-c3ccc(F)cc3)cc12 [Example 52] . Value?
Result: >10^4
